Listed below: pIC50 values for each entry.
Biological target: purified recombinant enzyme Cdc25-C (MBP-Cdc25C) (Homo sapiens)
Construct: made in house
Test: Measurement of the phosphatase activity of the purified recombinant enzyme Cdc25C (OMFP dephosphorylation, fluorescence)
Type: biochemical
Settings: OMFP 500 μM, 4 hours at 30° C.
pIC50: −log10 of the molar value.

CN(CCCNC1=CC(=O)c2nc(C(=O)N3CCCC3)sc2C1=O)CCCNC1=CC(=O)c2nc(C(=O)N3CCCC3)sc2C1=O [Example 31] = ≥ 6.00
CN(CCCN(C)C1=CC(=O)c2nc(-c3cc(F)ccc3F)oc2C1=O)CCCN(C)C1=CC(=O)c2nc(-c3cc(F)ccc3F)oc2C1=O [Example 23] = ≥ 5.30
CN(CCCNC1=CC(=O)c2scnc2C1=O)CCCNC1=CC(=O)c2scnc2C1=O [Example 25] = ≥ 6.00
CN(CCCNC1=CC(=O)c2nc(-c3cccc(Br)c3)oc2C1=O)CCCNC1=CC(=O)c2nc(-c3cccc(Br)c3)oc2C1=O [Example 11] = ≥ 5.30
CN(CCCNC1=CC(=O)c2nc(Cc3c(F)cccc3Cl)oc2C1=O)CCCNC1=CC(=O)c2nc(Cc3c(F)cccc3Cl)oc2C1=O [Example 10] = ≥ 6.00
Cc1nc2c(s1)C(=O)C=C(NCCCN(C)CCCNC1=CC(=O)c3sc(C)nc3C1=O)C2=O [Example 1] = ≥ 6.00

Short answer for CN(CCCNC1=CC(=O)c2sc(C(=O)Nc3ccc(F)cc3)nc2C1=O)CCCNC1=CC(=O)c2sc(C(=O)Nc3ccc(F)cc3)nc2C1=O [Example 32] : pIC50 was ≥ 6.00

Short answer for Cc1nc2c(s1)C(=O)C(NCCN(C)CCNC1=CC(=O)c3nc(C)sc3C1=O)=CC2=O [Example 6] : pIC50 was ≥ 5.30

Short answer for COc1ccc(CNC(=O)c2nc3c(s2)C(=O)C=C(NCCCN(C)CCCNC2=CC(=O)c4sc(C)nc4C2=O)C3=O)cc1 [Example 45] : pIC50 was ≥ 6.00

---

Listed below: melting point values for each entry.

# annotated cases, reported melting point shown
Cc1nc2c(s1)C(=O)C=C(NCCCN(CCCNC1=CC(=O)c3sc(C)nc3C1=O)CCCNC1=CC(=O)c3sc(C)nc3C1=O)C2=O = 131 to 132 °C
CN(CCCNC1=CC(=O)c2nc(Cc3c(F)cccc3Cl)oc2C1=O)CCCNC1=CC(=O)c2nc(Cc3c(F)cccc3Cl)oc2C1=O = 165 to 167 °C

Short answer for "CN(CCCNC1=CC(=O)c2nc(-c3cccc(Cl)c3)oc2C1=O)CCCNC1=CC(=O)c2nc(-c3cccc(Cl)c3)oc2C1=O" : melting point was 196 to 197 °C

---

Listed below: melting point values for each entry.

CN(CCCNC1=CC(=O)c2sc(C(=O)NC3CCCCC3)nc2C1=O)CCCNC1=CC(=O)c2sc(C(=O)NC3CCCCC3)nc2C1=O = 145 to 146 °C
CN(CCCNC1=CC(=O)c2scnc2C1=O)CCCNC1=CC(=O)c2scnc2C1=O = 223 to 224 °C
Cc1nc2c(s1)C(=O)C=C(NCCCN(C)CCCNC1=CC(=O)c3sc(C)nc3C1=O)C2=O = 94 to 96 °C
COc1ccc(NC(=O)c2nc3c(s2)C(=O)C=C(NCCCN(C)CCCNC2=CC(=O)c4sc(C)nc4C2=O)C3=O)cc1 = 141 to 142 °C
COc1ccc(CNC(=O)c2nc3c(s2)C(=O)C=C(NCCCN(C)CCCNC2=CC(=O)c4sc(C(=O)NCc5ccc(OC)cc5)nc4C2=O)C3=O)cc1 = 174 to 175 °C
CN(CCCNC1=CC(=O)c2sc(C(=O)N3CCN(C(=O)N4CCOCC4)CC3)nc2C1=O)CCCNC1=CC(=O)c2sc(C(=O)N3CCN(C(=O)N4CCOCC4)CC3)nc2C1=O = 157 to 158 °C
Cc1nc2c(s1)C(=O)C=C(NCC1CCC(CNC3=CC(=O)c4sc(C)nc4C3=O)CC1)C2=O (centres unmarked) = > 240 °C

Next item in the queue.
Short answer for "CN(CCCNC1=CC(=O)c2sc(C(=O)N3CCN(C(=O)c4ccco4)CC3)nc2C1=O)CCCNC1=CC(=O)c2sc(C(=O)N3CCN(C(=O)c4ccco4)CC3)nc2C1=O" : melting point was 173 to 174 °C

---

Target: purified recombinant enzyme Cdc25-C (MBP-Cdc25C) (Homo sapiens)
Sequence (P30307 1-473): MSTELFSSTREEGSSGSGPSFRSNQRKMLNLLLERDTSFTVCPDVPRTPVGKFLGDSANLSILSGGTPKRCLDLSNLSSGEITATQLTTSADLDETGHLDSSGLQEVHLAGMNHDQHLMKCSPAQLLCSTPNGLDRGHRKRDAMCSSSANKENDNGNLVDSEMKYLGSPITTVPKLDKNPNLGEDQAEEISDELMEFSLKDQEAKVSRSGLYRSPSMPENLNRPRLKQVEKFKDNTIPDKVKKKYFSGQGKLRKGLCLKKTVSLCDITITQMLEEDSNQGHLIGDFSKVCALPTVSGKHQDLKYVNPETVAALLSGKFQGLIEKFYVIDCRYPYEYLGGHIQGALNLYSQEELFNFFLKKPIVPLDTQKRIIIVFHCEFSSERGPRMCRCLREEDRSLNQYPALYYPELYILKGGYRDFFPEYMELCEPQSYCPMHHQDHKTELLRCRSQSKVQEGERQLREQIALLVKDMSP
Assay: Measurement of the phosphatase activity of the purified recombinant enzyme Cdc25C (OMFP dephosphorylation, fluorescence)
Conditions: OMFP 500 μM, 4 hours at 30° C.
pIC50: −log10 of the molar value.
REPORTED_METRIC: pIC50

# annotated cases, reported pIC50 shown
CN(CCCNC1=CC(=O)c2sc(C(=O)N3CCN(C(=O)N4CCOCC4)CC3)nc2C1=O)CCCNC1=CC(=O)c2sc(C(=O)N3CCN(C(=O)N4CCOCC4)CC3)nc2C1=O = ≥ 6.00
CN(CCCNC1=CC(=O)c2sc(C(=O)N3CCN(C(=O)C4CCCO4)CC3)nc2C1=O)CCCNC1=CC(=O)c2sc(C(=O)N3CCN(C(=O)C4CCCO4)CC3)nc2C1=O (stereo not drawn) = ≥ 6.00

Next item in the queue.
Short answer for "CN(CCCNC1=CC(=O)c2sc(C(=O)N3CCOCC3)nc2C1=O)CCCNC1=CC(=O)c2sc(C(=O)N3CCOCC3)nc2C1=O" : pIC50 was ≥ 6.00

---

REPORTED_METRIC: melting point

# annotated cases, reported melting point shown
CN(CCCNC1=CC(=O)c2nc(-c3ccc(F)cc3)oc2C1=O)CCCNC1=CC(=O)c2nc(-c3ccc(F)cc3)oc2C1=O = 204 to 205 °C
CN(CCCNC1=CC(=O)c2sc(C(=O)NCCCN3CCCC3=O)nc2C1=O)CCCNC1=CC(=O)c2sc(C(=O)NCCCN3CCCC3=O)nc2C1=O = 185 to 186 °C
CCNC(=O)c1nc2c(s1)C(=O)C=C(NCCCN(C)CCCNC1=CC(=O)c3sc(C)nc3C1=O)C2=O = 107 to 108 °C
COc1ccc(C(=O)N2CCN(C(=O)c3nc4c(s3)C(=O)C=C(NCCCN(C)CCCNC3=CC(=O)c5sc(C(=O)N6CCN(C(=O)c7ccc(OC)cc7)CC6)nc5C3=O)C4=O)CC2)cc1 = 202 to 203 °C
CN(CCCNC1=CC(=O)c2sc(C(=O)N3CCOCC3)nc2C1=O)CCCNC1=CC(=O)c2sc(C(=O)N3CCOCC3)nc2C1=O = 207 to 208 °C

Short answer for Cc1nc2c(s1)C(=O)C(NCCCN(C)CCCNC1=CC(=O)c3sc(C(=O)N4CCN(C(=O)C5CCCO5)CC4)nc3C1=O)=CC2=O (stereo not shown) : melting point was 121 to 122 °C

---

Listed below: melting point values for each entry.

# annotated cases, reported melting point shown
Cc1nc2c(s1)C(=O)C=C(NCCN(C)CCNC1=CC(=O)c3sc(C)nc3C1=O)C2=O = 188 to 190 °C
CN(CCCNC1=CC(=O)c2nc(C(=O)N3CCCC3)sc2C1=O)CCCNC1=CC(=O)c2nc(C(=O)N3CCCC3)sc2C1=O = 237 to 238 °C
CN(CCCNC1=CC(=O)c2sc(C(=O)N3CCN(C(=O)C4CCCO4)CC3)nc2C1=O)CCCNC1=CC(=O)c2sc(C(=O)N3CCN(C(=O)C4CCCO4)CC3)nc2C1=O (stereo not shown) = 152 to 153 °C
CN(CCCNC1=CC(=O)c2nc(-c3cccc(Br)c3)oc2C1=O)CCCNC1=CC(=O)c2nc(-c3cccc(Br)c3)oc2C1=O = 199 to 200 °C
CN(CCCNC1=CC(=O)c2sc(C(=O)Nc3ccc(F)cc3)nc2C1=O)CCCNC1=CC(=O)c2sc(C(=O)Nc3ccc(F)cc3)nc2C1=O = 262 to 263 °C
CN(CCCNC1=CC(=O)c2nc(-c3cc(F)ccc3F)oc2C1=O)CCCNC1=CC(=O)c2nc(-c3cc(F)ccc3F)oc2C1=O = 209 to 210 °C

Short answer for "Cc1nc2c(s1)C(=O)C(NCCCN(C)CCCNC1=CC(=O)c3nc(C)sc3C1=O)=CC2=O" : melting point was 91 to 93 °C

Where do these numbers come from? They come from patent US8017637B2.
